Entry source: ChEMBL document CHEMBL5528010

system: Trypanosoma brucei; experiment: Antiparasitic activity against blood stream form Trypanosoma brucei assessed as parasitic growth inhibition incubated for 72 hrs by resazurin dye based fluorescence analysis; type: functional, organism-based
pEC50: −log10 of the molar value.
Is pEC50 at least 6? Then met. If not, not met.

molecule="COc1cc(C(C[N+](=O)[O-])c2c(N)nc(N)nc2N)ccc1O (stereo unspecified)" target_under_test="Trypanosoma brucei" label="not met"
molecule="Nc1nc(N)c(C(C[N+](=O)[O-])c2cccc(Br)c2)c(N)n1 (stereo unspecified)" target_under_test="Trypanosoma brucei" label=met
molecule="Nc1nc(N)c(C(C[N+](=O)[O-])c2cccs2)c(N)n1 (stereo unspecified)" target_under_test="Trypanosoma brucei" label="not met"

---

Some molecules, each annotated with its measured pIC50.
test: Mitochondrial toxicity in human A549 cells; type: cell-based
pIC50: −log10 of the molar value.
Metric name: pIC50

molecule="Nc1nc(N)c(C(C[N+](=O)[O-])c2csc3ccccc23)c(N)n1 (configuration not stated)" metric_name=pIC50 observed_measurement=4.98
molecule="Nc1nc(N)c(C(C[N+](=O)[O-])c2ccccc2OCc2ccc(Cl)c(Cl)c2)c(N)n1 (configuration not stated)" metric_name=pIC50 observed_measurement=5.41

---

Some compounds, each annotated with its measured half-life.
test: Half life in BALB/c mouse at 20 mg/kg, po measured upto 24 hrs by LC-MS/MS analysis; assay type: ADME, organism-based; conditions: in vivo
Metric name: half-life (min)

compound="Nc1nc(N)c(C(C[N+](=O)[O-])c2ccccc2OCc2cccc(Cl)c2)c(N)n1 (stereo unspecified)" observed_measurement=144
compound="Nc1nc(N)c(C(C[N+](=O)[O-])c2cccc3c2OCO3)c(N)n1 (stereo unspecified)" observed_measurement=126
compound="Nc1nc(N)c(C(C[N+](=O)[O-])c2ccc(OCc3ccc(Cl)c(Cl)c3)cc2)c(N)n1 (stereo unspecified)" observed_measurement=180
compound="Nc1nc(N)c(C(C[N+](=O)[O-])c2ccc3c(c2)OCCO3)c(N)n1 (stereo unspecified)" observed_measurement=270
compound="Nc1nc(N)c(C(C[N+](=O)[O-])c2ccccc2OCc2ccc(Cl)c(Cl)c2)c(N)n1 (stereo unspecified)" observed_measurement=180
compound="Nc1nc(N)c(C(C[N+](=O)[O-])c2csc3ccccc23)c(N)n1 (stereo unspecified)" observed_measurement=126

---

tested on: Leishmania infantum; assay: Antiparasitic activity against Leishmania infantum intracellular amastigotes MHOM/BR/1972/BH46 infected in human THP-1 cells assessed as inhibition of parasitic growth at 50 uM pre-infected for 24 hrs followed by compound addition and measured after 48 hrs relative to control; assay type: functional; details: MHOM/BR/1972/BH46, THP-1
Some compounds, each annotated with its measured inhibition at 50 µM.
Metric name: inhibition at 50 µM (%)

compound="Nc1nc(N)c(C(C[N+](=O)[O-])c2ccc(Br)cc2)c(N)n1 (stereo not given)" observed_measurement=83.4
compound="Cc1ccc(C(C[N+](=O)[O-])c2c(N)nc(N)nc2N)s1 (stereo not given)" observed_measurement=15.4
compound="Nc1nc(N)c(C(C[N+](=O)[O-])c2cccs2)c(N)n1 (stereo not given)" observed_measurement=22.5
compound=CCCCCCCCCCCCCCCCOP(=O)([O-])OCC[N+](C)(C)C observed_measurement=1.29
compound="Nc1nc(N)c(C(C[N+](=O)[O-])c2ccc3c(c2)CCO3)c(N)n1 (stereo not given)" observed_measurement=21.1
